Measured values drawn from ChEMBL document CHEMBL5518155 for this set.

molecular target: Human immunodeficiency virus type 1 reverse transcriptase (Human immunodeficiency virus 1, UniProt Q72547); experiment: Inhibition of HIV-1 RNase H polymerase activity
For each of the molecules below, state its pIC50.
One number for each entry, as −log10 of the molar value.

{"columns": ["Entry Smiles", "Value Measured"],
 "data": [
  ["COC(=O)c1c(C)cc(O)c(=O)c(O)c1O", 5.82],
  ["COC(=O)c1c(C)cc(OC)c(=O)c(O)c1OC", 4.87],
  ["COc1ccccc1C(=O)N1CCC(NC(=O)c2cc(O)c(O)c(O)c2)CC1", 4.88]
]}

Turning to the following molecule.
q: Consider the molecule shown here: `Nc1nn(C(=O)c2ccc(Cl)cc2)c(N)c1C(=S)Nc1ccccc1` What is its recorded pIC50?
a: 5.15

====

assay: Inhibition of Escherichia coli DNA polymerase I
Endpoint Name: pIC50
Give bare numbers, as −log10 of the molar value.

q: What measured pIC50 goes with `CC(C)(C)c1ccc(C(=O)N/N=C/c2c(O)ccc3ccccc23)cc1` ?
a: 4.90

====

test system: Hepatitis B virus; test: Antiviral activity against HBV infected in AML12HBV10 cells assessed as reduction viral replication incubated for 48 hrs; type: functional, organism-based; conditions: AML12HBV10, 48 h
Endpoint Name: pEC50
Give bare numbers, as −log10 of the molar value.

q: What does the record list as pEC50 for `COC(=O)c1c(C)cc(OC)c(=O)c(O)c1O` ?
a: 6.03

====

I'd appreciate it if you could supply IC50 values for the items below.
experiment: Inhibition of DNA polymerase (unknown origin); set-up: species or system Homo sapiens

For every item below, please supply its IC50.
1. COc1ccc2ccccc2c1/C=N/NC(=O)c1ccc(O)c(O)c1
2. COc1ccc2ccccc2c1/C=N/NC(=O)c1ccc(C(C)(C)C)cc1

a:
["> 50000 nM", "2000 nM"]

====

Would you mind telling me the reported log10(IC50) of each entry?
molecular target: UniProt Q72547; assay: Inhibition of HIV-1 RNase H
Could you please treat all values as log10 of IC50 in µM?

Below, each entry is followed by its recorded log10(IC50) result.
{"columns": ["Entry Smiles", "Tgt", "log10(IC50)"],
 "data": [
  ["COc1ccc(-c2cccc(C(N)=O)c2)cc1/C=N/Nc1nc(-c2ccc([N+](=O)[O-])cc2)cs1", "UniProt Q72547", 0.65],
  ["COc1ccc2ccccc2c1/C=N/NC(=O)c1ccc(C(C)(C)C)cc1", "UniProt Q72547", 0.48],
  ["N#Cc1ccc(-c2csc(NN=C3C(=O)Nc4ccccc43)n2)cc1", "UniProt Q72547", 0.11]
]}

The following molecules each have a reported value; give each one's log10(IC50).
1. Cn1c(-c2ccc(-c3ccccc3)cc2)cs/c1=N/N=C1\C(=O)Nc2ccc(Cl)cc21
2. COc1ccc2ccccc2c1/C=N/NC(=O)c1ccc(O)c(O)c1
3. COc1c(/C=C/C(=O)c2ccc(-c3ccccc3)cc2)ccc2ccccc12

a:
1.00
1.18
0.78

====

molecular target: UniProtKB Q72547; experiment: Inhibition of recombinant HIV-1 reverse transcriptase associated RNA-dependent DNA polymerase activity incubated for 30 mins by liquid scintillation method
Endpoint Name: pIC50
Answers are plain numbers, as −log10 of the molar value.

Below are worked cases with known answers.
{"columns": ["Entry Smiles", "pIC50"],
 "data": [
  ["N#Cc1ccc(-c2csc(NN=C3C(=O)Nc4ccccc43)n2)cc1", 5.02],
  ["CC(C)(C)c1ccc(C(=O)N/N=C/c2c(O)ccc3ccccc23)cc1", 6.10]
]}

API: the following record is the query input.
q: Entry under review: `Cn1c(-c2ccc(-c3ccccc3)cc2)cs/c1=N/N=C1\C(=O)Nc2ccc(Cl)cc21` . Reported pIC50?
a: 5.01

====

assay: Inhibition of HIV-1 RNA-dependent […]; design: species or system Human immunodeficiency virus 1
pIC50: −log10 of the molar value.
Output y for pIC50 not less than 5; output n otherwise.

{"columns": ["Entry Smiles", "Class Assignment"],
 "data": [
  ["COc1c(/C=C/C(=O)c2ccc(-c3ccccc3)cc2)ccc2ccccc12", "y"]
]}

q: Please indicate if the recorded pIC50 for `O=C1c2ccccc2C(=O)c2c1ccc(O)c2O` meets or exceeds 5.
a: n

q: Dear colleague, could you confirm whether `COc1cc(OC)cc(OC(=O)c2ccc(C(F)(F)F)cc2Nc2cc(Cl)ccc2C)c1` has pIC50 at or above 5?
a: n

q: Does the reported pIC50 for `O=C1Nc2ccccc2/C1=N/Nc1nc(-c2ccc(O)c(O)c2)cs1` fall at or above the 5 mark?
a: y

====

Task for the reader: assign each of the following compounds its reported pIC50.
target: Human immunodeficiency virus type 1 reverse transcriptase (Human immunodeficiency virus 1); assay: Inhibition of recombinant HIV-1 reverse transcriptase associated RNase H expressed in Escherichia coli BL21 (DE3) using 5-GTTTTCTTTTCCCCCCTGAC-3 Fluorescein/5CAAAAGAAAAGGGGGGACUG-3-Dabcyl as substrate incubated for 1 hr by multilabel counter plate reader method
One number for each entry, as −log10 of the molar value.

Consider the reported pIC50 for these compounds:
{"columns": ["Entry Smiles", "Endpoint Name", "Value Measured"],
 "data": [
  ["NC(=O)c1c(N)sc2c1CCCCC2", "pIC50", 5.70],
  ["O=c1oc(-c2ccc(O)c(O)c2)nc2sc3ccccc3c12", "pIC50", 6.28]
]}

Please examine the following record next.
q: Entry under review: `O=C(Nc1sc2c(c1C(=O)Nc1ccccn1)CCCCC2)c1ccc(O)c(O)c1` . Reported pIC50?
a: 6.08

====

test: Cytotoxicity against HEK-293T cells assessed as reduction in cell growth measured for 72 hrs by MTT assay; assay type: toxicity, cell-based; settings: human
Endpoint Name: CC50 at 72 h

q: I would be grateful if you could share the reported CC50 at 72 h for `O=C(Oc1ccc2c(c1OC(=O)c1ccccc1)C(=O)c1ccccc1C2=O)c1ccccc1` .
a: ~100 µM

====

test: Cytotoxicity against african green monkey Vero E6 cells incubated for 24 hrs by Cell-titer 96 cell proliferation assay; format: toxicity, cell-based, Vero C1008; conditions: chlorocebus sabaeus
Endpoint Name: CC50 at 24 h

q: So what does the record say about CC50 at 24 h for `COc1cc(OC)cc(OC(=O)c2ccc(C(F)(F)F)cc2Nc2cc(Cl)ccc2C)c1` ?
a: > 50 µM

====

system: Human immunodeficiency virus 1; assay: Antiviral activity against HIV-1 harboring reverse transcriptase […] mutant infected in human MT4 cells assessed as reduction in virus-induced cytopathic effect; format: functional, organism-based; conditions: Human immunodeficiency virus 1, MT4
pEC50: −log10 of the molar value.
Endpoint Name: pEC50

q: # pEC50 lookup, item `O=C(Oc1ccc2c(c1OC(=O)c1ccccc1)C(=O)c1ccccc1C2=O)c1ccccc1`
a: < 4.00

====

target: UniProtKB Q72547; assay: Inhibition of HIV-1 reverse transcriptase associated RNA-dependent DNA polymerase
Endpoint Name: pIC50
One number for each entry, as −log10 of the molar value.

{"columns": ["Entry Smiles", "Endpoint Name", "Value Measured"],
 "data": [
  ["Nc1nn(C(=O)c2ccc(Cl)cc2)c(N)c1C(=S)Nc1ccccc1", "pIC50", 4.77]
]}

As a next step, examine the compound that follows.
q: Record `COc1cc(OC)cc(OC(=O)c2ccc(C(F)(F)F)cc2Nc2cc(Cl)ccc2C)c1` : what is its pIC50 with UniProtKB Q72547?
a: 4.79
